- Tested on: HS 578T breast
Non-standard residues stand in square brackets, D forms with d. Residues, ends and D or L forms follow the SMILES beside them. ξ: configuration not given here. *: point of attachment. Boc = CC(C)(C)OC(=O)*; ξV = CC(C)C(N)C(=O)O; OBn = c1ccc(CO*)cc1
Labels: active, inactive

compound=CN[C@]12CC3(C=CC(=O)C=C3)O[C@@]1(Cc1ccc(OC)cc1)N(C)C(=O)N2 category_label=inactive
compound=COc1ccc(/C=C2\CN(Cc3cn(CCCNc4ccnc5cc(Cl)ccc45)nn3)C/C(=C\c3ccc(OC)c(OC)c3)C2=O)cc1OC category_label=inactive
compound=Clc1cc(Cl)c(Cl)c(-c2nc(-c3cccnc3)cs2)c1 category_label=inactive
compound=C=C1C(=O)O[C@H]2[C@H]1CC/C(Cn1cc(Cn3ccc4ccccc43)nn1)=C\CC[C@@]1(C)O[C@@H]21 category_label=inactive
compound=CCOC(=O)c1ccc(N(CCOS(C)(=O)=O)CCOS(C)(=O)=O)cc1C category_label=inactive
compound=NC1=C(Cl)C(=O)c2ccc(S(N)(=O)=O)cc2C1=O category_label=active
compound=COc1ccc(N(CC(=O)NCCC[Te]c2ccccc2)C(=O)CCSC2=C(C)C(=O)c3ccccc3C2=O)cc1 category_label=inactive
compound=CCN(CC)CCOc1ccc(/C(=C(\C)Cc2ccc(OC)cc2)c2ccc(OC(=O)NCc3ccccc3)cc2)cc1 category_label=inactive
compound=Cn1ncc2c(/N=C/c3cccs3)[nH]c(=S)nc21 category_label=inactive
compound="CC(C)C(NC(=O)OC(C)(C)C)C(=O)NCC(=O)OCc1ccccc1 (configuration not stated) (Boc-[ξV]-Gly-OBn)" category_label=inactive
compound=Cc1cccc2c(N=Nc3ccc(S(N)(=O)=O)cc3)c(O)[nH]c12 category_label=inactive
compound=CCCCCCCC/C=C/CCCCCCCC1=NC(C)(C)CN1C(C)C category_label=inactive
compound=COc1cc(/C=C2\CN(C)C/C(=C\c3cc(OC)c(OC)c(OC)c3)C2=O)cc(OC)c1OC category_label=inactive
compound=COc1ccc(-c2cnc3ccnn3c2-c2cc(OC)c(OC)c(OC)c2)cc1 category_label=inactive
compound=c1cc(OCCN2CCCCCC2)ccc1CNc1ccc2nc(CCC3CCCCC3)[nH]c2c1 category_label=inactive
compound=CCOC(=O)c1c(-c2ccccc2)[n+](=O)c2ccc(Cl)cc2n1[O-] category_label=inactive
compound=S=c1nc2[nH]ncc2c(N/N=C/c2ccccc2)[nH]1 category_label=inactive

// provenance: PubChem BioAssay (NCI)
